So I've got a bunch of compounds here, and I need their pIC50 values.
ASSAYED SYSTEM: Epidermal growth factor receptor (Homo sapiens)
Sequence (P00533 whole entry): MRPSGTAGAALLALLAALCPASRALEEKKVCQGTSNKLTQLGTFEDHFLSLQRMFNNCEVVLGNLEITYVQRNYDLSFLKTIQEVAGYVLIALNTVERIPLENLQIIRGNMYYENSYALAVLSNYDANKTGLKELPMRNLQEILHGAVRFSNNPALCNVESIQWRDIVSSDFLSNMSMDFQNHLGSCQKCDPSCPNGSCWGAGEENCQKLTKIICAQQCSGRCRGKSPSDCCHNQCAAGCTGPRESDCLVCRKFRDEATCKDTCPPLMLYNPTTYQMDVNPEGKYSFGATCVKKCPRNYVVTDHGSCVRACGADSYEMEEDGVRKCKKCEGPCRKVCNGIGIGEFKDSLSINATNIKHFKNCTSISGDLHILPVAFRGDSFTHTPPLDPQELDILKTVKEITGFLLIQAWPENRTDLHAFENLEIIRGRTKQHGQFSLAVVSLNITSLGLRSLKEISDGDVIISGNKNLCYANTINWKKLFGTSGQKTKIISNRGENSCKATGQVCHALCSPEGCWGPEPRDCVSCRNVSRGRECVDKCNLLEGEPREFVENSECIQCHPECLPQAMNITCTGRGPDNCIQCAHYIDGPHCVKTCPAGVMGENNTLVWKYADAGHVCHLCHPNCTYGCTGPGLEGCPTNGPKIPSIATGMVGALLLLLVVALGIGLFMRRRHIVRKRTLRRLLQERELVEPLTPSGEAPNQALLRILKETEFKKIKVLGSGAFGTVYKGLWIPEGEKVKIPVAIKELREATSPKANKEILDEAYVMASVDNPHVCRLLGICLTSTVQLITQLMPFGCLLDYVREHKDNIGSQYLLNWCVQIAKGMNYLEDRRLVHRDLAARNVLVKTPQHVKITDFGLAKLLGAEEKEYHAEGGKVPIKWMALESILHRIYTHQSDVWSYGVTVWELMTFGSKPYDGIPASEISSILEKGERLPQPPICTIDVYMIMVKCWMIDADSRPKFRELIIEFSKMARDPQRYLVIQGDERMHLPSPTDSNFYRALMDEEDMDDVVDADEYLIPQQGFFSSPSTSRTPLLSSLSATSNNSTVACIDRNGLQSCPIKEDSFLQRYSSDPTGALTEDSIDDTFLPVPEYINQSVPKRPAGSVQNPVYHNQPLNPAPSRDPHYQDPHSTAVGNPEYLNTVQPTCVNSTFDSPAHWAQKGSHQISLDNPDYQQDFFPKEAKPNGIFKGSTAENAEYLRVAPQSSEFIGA
EXPERIMENT: Inhibition of human EGFR expressed in human A431 cells using poly(Glu4/Tyr) and [gamma32P]ATP as substrate after 1 hr by scintillation counting
pIC50: −log10 of the molar value.

Which pIC50 is reported for this compound? COc1cc2ncnc(Nc3ccccc3)c2cc1OC 5.37

Which pIC50 is reported for this compound? COc1cc2ncnc(Oc3ccc(NC(=O)Nc4ccc(Br)cc4)c(C)c3)c2cc1OC < 5.00

Which pIC50 is reported for this compound? CCCCOc1cc2c(Nc3ccc(NC(=O)OC)c(C)c3)ncnc2cc1OCCN(CC)CC < 5.00

Which pIC50 is reported for this compound? COc1cc2ncnc(Oc3ccc(NC(=O)Nc4ccc5ccccc5c4)c(C)c3)c2cc1OC < 5.00

Which pIC50 is reported for this compound? CCN(CC)CCOc1cc2ncnc(Nc3ccc(F)c(Cl)c3)c2cc1OC 5.00

Which pIC50 is reported for this compound? COc1cccc(NC(=O)Nc2ccc(Nc3ncnc4cc(OC)c(OC)cc34)cc2)c1 < 5.00

Which pIC50 is reported for this compound? COc1cc2ncnc(Oc3ccc(NC(=O)Nc4cccc(Br)c4)cc3)c2cc1OC < 5.00

Which pIC50 is reported for this compound? COc1cc2ncnc(Oc3ccc(NC(=O)Nc4cccc(Br)c4)c(C)c3)c2cc1OC < 5.00

Which pIC50 is reported for this compound? CCN(CC)CCOc1cc2ncnc(Nc3ccc(NC(=O)OC)c(Cl)c3)c2cc1OC < 5.00

Which pIC50 is reported for this compound? CCC(=O)Nc1ccc(Nc2ncnc3cc(OC)c(OC)cc23)cc1 < 5.00
